Test system: Mycobacterium tuberculosis
assay_method_text: Antitubercular potency, ratio of Isoniazid MIC to drug MIC against Mycobacterium tuberculosis H37Rv ATCC 27294
Assay type: functional
Readings of Ratio for the listed molecules
Reply with the value as a number alone.

Answered examples (5):
1) CCOC(=O)C1=C(OS(=O)(=O)c2ccc([N+](=O)[O-])cc2)CC(c2ccccc2)N(C(=O)CCl)C1c1ccccc1 (stereo unspecified)    1.56
2) COc1ccccc1C1C(C)C(=O)C(C)C(c2ccccc2OC)N1C(=O)Cn1cnc2ccccc21 (stereo unspecified)    0.19
3) CCOC(=O)C1=C(OS(=O)(=O)c2cccs2)CC(c2ccccc2)N(C(=O)CCl)C1c1ccccc1 (stereo unspecified)    0.78
4) CCOC(=O)C1=C(O)CC(c2ccccc2)N(C(=O)Cn2cnc3ccccc32)C1c1ccccc1 (stereo unspecified)    1.56
5) COc1ccc(C2C(C)C(=O)C(C)C(c3ccc(OC)cc3)N2C(=O)Cn2cnc3ccccc32)cc1 (stereo unspecified)    0.39

Task: // query Ratio value for entry CCOC(=O)C1=C(O)CC(c2ccccc2)N(C(=O)CCl)C1c1ccccc1 (stereo unspecified)
Output: 1.56

###

Tested on: Enterococcus faecium
assay_method_text: Antibacterial activity against Enterococcus faecium by broth micro dilution method
Format: functional
test_readout: MIC90 (µg/mL)
Numbers only; they are read as µg/mL.

Answered examples (3):
1. CC(=O)NC[C@H]1CN(c2ccc(N3CCOCC3)c(F)c2)C(=O)O1    2
2. CCOC(=O)C1=C(OS(=O)(=O)c2ccc([N+](=O)[O-])cc2)CC(c2ccccc2)N(C(=O)CCl)C1c1ccccc1 (centres undefined)    32
3. N[C@@H]1[C@H]2CN(c3nc4c(cc3F)c(=O)c(C(=O)O)cn4-c3ccc(F)cc3F)C[C@@H]12    64

// switching to the query molecule
Task: // query MIC90 value for entry CCOC(=O)C1=C(O)CC(c2ccccc2)N(C(=O)CCl)C1c1ccccc1 (centres undefined)
Output: 64

###

System: Staphylococcus aureus
assay_method_text: Antibacterial activity against Staphylococcus aureus by broth micro dilution method
Format: functional
test_readout: MIC90 (µg/mL)
Numbers only; they are read as µg/mL.

Task: // query MIC90 value for entry CCOC(=O)C1=C(OS(=O)(=O)c2ccccc2[N+](=O)[O-])CC(c2ccccc2)N(C(=O)CCl)C1c1ccccc1 (centres undefined)
Output: 64

Task: // query MIC90 value for entry Cc1ccc(C2C(C)C(=O)C(C)C(c3ccc(C)cc3)N2C(=O)Cn2cnc3ccccc32)cc1 (centres undefined)
Output: 64

Task: // query MIC90 value for entry COc1ccc(C2C(C)C(=O)C(C)C(c3ccc(OC)cc3)N2C(=O)Cn2cnc3ccccc32)cc1 (centres undefined)
Output: 16

Task: // query MIC90 value for entry CC1C(=O)C(C)C(c2ccccc2Cl)N(C(=O)Cn2cnc3ccccc32)C1c1ccccc1Cl (centres undefined)
Output: 64

###

Test system: Mycobacterium tuberculosis
assay_method_text: Antitubercular activity against Mycobacterium tuberculosis H37Rv ATCC 27294 by radiometric respiratory technique
Assay type: functional
test_readout: log10(MIC) (log10 of the value in µg/mL)
Note: values are log10 of MIC expressed in µg/mL.

Task: // query log10(MIC) value for entry CO[C@H]1/C=C/O[C@@]2(C)Oc3c(C)c(O)c4c(O)c(c(/C=N/N5CCN(C)CC5)c(O)c4c3C2=O)NC(=O)/C(C)=C\C=C\[C@H](C)[C@H](O)[C@@H](C)[C@@H](O)[C@@H](C)[C@H](OC(C)=O)[C@@H]1C [RIFAMPIN]
Output: 1.51

Task: // query log10(MIC) value for entry CCOC(=O)C1=C(O)CC(c2ccccc2)N(C(=O)CCl)C1c1ccccc1 (stereo not drawn)
Output: 1.20

Task: // query log10(MIC) value for entry COc1ccc(C2C(C)C(=O)C(C)C(c3ccc(OC)cc3)N2C(=O)Cn2cnc3ccccc32)cc1 (stereo not drawn)
Output: 1.81

###

Readings of MIC90 for the listed compounds
Test system: Enterococcus faecalis
assay_method_text: Antibacterial activity against vancomycin and linezolid-resistant Enterococcus faecalis by broth micro dilution method
Type: functional
Express your answer as a number followed by its unit.

Task: Quick check: MIC90 on Enterococcus faecalis, item CC(=O)NC[C@H]1CN(c2ccc(N3CCOCC3)c(F)c2)C(=O)O1 [LINEZOLID] ?
Output: 64 µg/mL

Task: Quick check: MIC90 on Enterococcus faecalis, item CCOC(=O)C1=C(OS(=O)(=O)c2ccc([N+](=O)[O-])cc2)CC(c2ccccc2)N(C(=O)CCl)C1c1ccccc1 (stereo not given) ?
Output: 64 µg/mL

Task: Quick check: MIC90 on Enterococcus faecalis, item CCOC(=O)C1=C(O)CC(c2ccccc2)N(C(=O)CCl)C1c1ccccc1 (stereo not given) ?
Output: 32 µg/mL

Task: Quick check: MIC90 on Enterococcus faecalis, item CCOC(=O)C1=C(O)CC(c2ccccc2)N(C(=O)Cn2cnc3ccccc32)C1c1ccccc1 (stereo not given) ?
Output: 128 µg/mL

Task: Quick check: MIC90 on Enterococcus faecalis, item N[C@@H]1[C@H]2CN(c3nc4c(cc3F)c(=O)c(C(=O)O)cn4-c3ccc(F)cc3F)C[C@@H]12 [TROVAFLOXACIN] ?
Output: 16 µg/mL

###

Tested on: Haemophilus influenzae
assay_method_text: Antibacterial activity against Haemophilus influenzae at 128 ug/mL by broth micro dilution method
Format: functional, organism-based
Active and inactive are the calls of the source. The rule behind the calls is not given here.
test_readout: Activity

Answered examples (4):
1) CCOC(=O)C1=C(OS(=O)(=O)c2ccccc2[N+](=O)[O-])CC(c2ccccc2)N(C(=O)CCl)C1c1ccccc1 (stereo not given)    inactive
2) CC1C(=O)C(C)C(c2ccccc2Cl)N(C(=O)Cn2cnc3ccccc32)C1c1ccccc1Cl (stereo not given)    inactive
3) CCOC(=O)C1=C(OS(=O)(=O)c2cccs2)CC(c2ccccc2)N(C(=O)CCl)C1c1ccccc1 (stereo not given)    inactive
4) CCOC(=O)C1=C(O)CC(c2ccccc2)N(C(=O)Cn2cnc3ccccc32)C1c1ccccc1 (stereo not given)    inactive

// switching to the query compound
Task: // query Activity value for entry COc1cc(OC)cc(C2CC(=O)C(C)C(c3cc(OC)cc(OC)c3)N2C(=O)Cn2cnc3ccccc32)c1 (stereo not given)
Output: inactive

###

Readings of MIC for the listed compounds
System: Mycobacterium tuberculosis
assay_method_text: Antitubercular activity against Mycobacterium tuberculosis H37Rv ATCC 27294 by radiometric respiratory technique
Format: functional
Numbers only; they are read as mg/L.

Answered examples (4):
1. CCOC(=O)C1=C(OS(=O)(=O)c2cccs2)CC(c2ccccc2)N(C(=O)CCl)C1c1ccccc1 (stereo not given)    32
2. CCOC(=O)C1=C(O)CC(c2ccccc2)N(C(=O)Cn2cnc3ccccc32)C1c1ccccc1 (stereo not given)    16
3. NNC(=O)c1ccncc1 [ISONIAZID]    0.25
4. COc1ccccc1C1C(C)C(=O)C(C)C(c2ccccc2OC)N1C(=O)Cn1cnc2ccccc21 (stereo not given)    128

Task: // query MIC value for entry CCOC(=O)C1=C(OS(=O)(=O)c2ccc([N+](=O)[O-])cc2)CC(c2ccccc2)N(C(=O)CCl)C1c1ccccc1 (stereo not given)
Output: 16
